I'd be grateful if you could share measured pEC50 for these entries.
Target: human IL-17AA (Homo sapiens, UniProt Q16552)
Construct: host or cells: HEK (human embryonic kidney) cells
Assay: IL-8 release assay in human epithelial keratinocytes adult (HEKa)
Format: cell-based
Conditions: HEKa cells, 3 ng/mL HEK-human IL-17AA + 10 ng/mL human TNFalpha; read-out: Rel EC50 IL-8 release assay
pEC50: −log10 of the molar value.

Example compounds with recorded pEC50:
Compound: CCC(C1CCCCC1)C(NC(=O)c1ccnn1C)C(=O)Nc1ccc(-c2c(C)n[nH]c2C)cc1 (single isomer, unassigned) [Example 258]
pEC50: > 7.00
--
Compound: CC[C@@H](C)[C@H](NC(=O)c1ccnn1C)C(=O)Nc1ccc(-c2c(C)n[nH]c2C)cc1 [Example 113]
pEC50: < 6.00
--
Compound: Cc1n[nH]c(C)c1-c1ccc(NC(=O)[C@@H](NC(=O)c2cn(C)c3ncccc23)C2CCCCC2)cc1 [Example 71]
pEC50: 6.00 to 7.00
--
Compound: Cc1cnccc1-c1ccc(NC(=O)[C@@H](NC(=O)c2ccnn2C(C)C)C(C2CC2)C2CC2)cc1 [Example 405]
pEC50: > 7.00
--
Compound: Cc1n[nH]c(C(C)O)c1-c1ccc(NC(=O)[C@@H](NC(=O)C2(F)CC2)C2CCCCC2)cc1 (some centres unmarked) [Example 441]
pEC50: < 6.00

Each compound below has a recorded value; state its pEC50.
1. Cc1n[nH]c(C)c1-c1ccc(NC(=O)[C@@H](NC(=O)c2ccnn2C)C(C2CC2)C2CC2)cc1O [Example 414]
2. CCn1ccc(C(=O)N[C@H](C(=O)Nc2ccc(-c3c(C)n[nH]c3C)cc2)C(C2CC2)C2CC2)n1 [Example 199]
3. Cc1n[nH]c(C)c1-c1ccc(NC(=O)[C@@H](NC(=O)c2ccnn2C(C)C)C(C2CCC2)C2CCC2)cc1 [Example 39]

1. > 7.00
2. < 6.00
3. > 7.00

State the recorded pEC50 for every item in the following list.
1. Cc1n[nH]c(C)c1-c1ccc(NC(=O)[C@@H](NC(=O)N2CCCC2C(C)(C)O)C2CCCCC2)cc1 (single isomer, unassigned) [Example 464]
2. Cc1n[nH]c(C)c1-c1ccc(NC(=O)[C@@H](NC(=O)c2ncnn2C(C)C)C(C2CC2)C2CC2)cc1 [Example 162]
3. Cc1n[nH]c(C)c1-c1ccc(NC(=O)[C@@H](NC(=O)c2ccnn2C)C2C[C@@H](C)C[C@@H](C)C2)cc1 (some centres unmarked) [Example 147]
4. Cn1cncc1-c1ccc(NC(=O)[C@H](CC2CCCCC2)NC(=O)OC(C)(C)C)cc1 [Example 93]
5. Cc1n[nH]c(C)c1-c1ccc(NC(=O)[C@@H](NC(=O)c2ccnn2C(C)CO)C(C2CCC2)C2CCC2)cc1 (single isomer, unassigned) [Example 123]
6. Cc1n[nH]c(C)c1-c1ccc(NC(=O)[C@@H](NC(=O)c2ccnn2C)C(C(C)C)C(C)C)cc1 [Example 244]

1: < 6.00; 2: 6.00 to 7.00; 3: > 7.00; 4: < 6.00; 5: > 7.00; 6: > 7.00

====

Molecular target: human IL-17AA (Homo sapiens)
Assay: IL-8 release assay in human epithelial keratinocytes adult (HEKa)
Conditions: HEKa cells, 3 ng/mL HEK-human IL-17AA + 10 ng/mL human TNFalpha; read-out: Rel EC50 IL-8 release assay
pEC50: −log10 of the molar value.
Assay Readout: pEC50

Use these answered entries as a reference point.
Compound: Cn1cncc1-c1ccc(NC(=O)[C@H](Cc2ccccc2Cl)NC(=O)OC(C)(C)C)cc1
Val: < 6.00
//
Compound: CCn1nccc1C(=O)N[C@H](C(=O)Nc1ccc(-c2c(C)n[nH]c2C)cc1)[C@H]1CCCC(F)(F)C1
Val: 6.00 to 7.00
//
Compound: Cc1n[nH]c(C)c1-c1ccc(NC(=O)C(NC(=O)c2ccnn2C)C(c2ccccc2)C2CC2)cc1 (single isomer, unassigned) [Example 302]
Val: < 6.00

Now consider the entry below.
What value of pEC50 has been recorded for this entry: "CC(C)n1nccc1C(=O)N[C@H](C(=O)Nc1ccc(-c2[nH]cnc2C2CC2)cc1)C(C1CC1)C1CC1"
6.00 to 7.00

====

Task for the reader: assign each of the following molecules its reported EC50.
Molecular target: human IL-17AA (Homo sapiens)
Sequence (Q16552 24-155): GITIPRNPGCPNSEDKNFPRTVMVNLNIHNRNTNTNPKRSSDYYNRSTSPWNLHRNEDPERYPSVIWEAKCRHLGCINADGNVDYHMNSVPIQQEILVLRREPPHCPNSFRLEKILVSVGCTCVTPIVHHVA
Test: IL-8 release assay in human epithelial keratinocytes adult (HEKa)
Conditions: HEKa cells, 3 ng/mL HEK-human IL-17AA + 10 ng/mL human TNFalpha; read-out: Rel EC50 IL-8 release assay

// solved cases for EC50 follow
Molecule: Cc1n[nH]c(C)c1-c1ccc(NC(=O)[C@@H](NC(=O)c2ccnn2C)[C@@H]2CCCc3c(F)cc(Br)cc32)cc1
EC50: 100 to 1000 nM

Molecule: CCn1nccc1C(=O)N[C@H](C(=O)Nc1ccc(-c2c(C)n[nH]c2C)cc1)C(C)C1CCC1 (single isomer, unassigned) [Example 193]
EC50: 100 to 1000 nM

Molecule: Cc1n[nH]c(C)c1-c1ccc(NC(=O)[C@@H](NC(=O)c2ccnn2C)[C@@H]2CCc3ccc(C#N)cc32)cc1
EC50: > 1000 nM

Molecule: Cc1n[nH]c(C(C)O)c1-c1ccc(NC(=O)[C@@H](NC(=O)c2ccnn2C)C(c2ccccc2)c2ccccc2)cc1 (some centres unmarked)
EC50: 100 to 1000 nM

Molecule: Cc1n[nH]c(C)c1-c1ccc(NC(=O)[C@@H](NC(=O)c2conc2C(C)C)C(C2CC2)C2CC2)cc1
EC50: < 100 nM

Molecule: Cc1n[nH]c(C)c1-c1ccc(NC(=O)[C@@H](Cc2ccccc2)NC(=O)c2ccnn2C)cc1
EC50: > 1000 nM

Molecule: Cc1n[nH]c(C)c1-c1ccc(NC(=O)[C@@H](NC(=O)c2ccnn2C(C)CO)[C@H]2CC[C@H](C)CC2)cc1 (single isomer, unassigned) [Example 204]
EC50: < 100 nM

Molecule: CCc1nocc1C(=O)N[C@H](C(=O)Nc1ccc(-c2c(C)n[nH]c2C)cc1)C(C1CC1)C1CC1
EC50: < 100 nM

Molecule: CCn1nccc1C(=O)N[C@H](C(=O)Nc1ccc(-c2c(C)n[nH]c2C)cc1)C1CCCCC1
EC50: < 100 nM

Molecule: Cc1n[nH]c(C)c1-c1ccc(NC(=O)C(NC(=O)c2ccnn2C)C2CCc3c(F)cccc32)cc1 (single isomer, unassigned) [Example 247]
EC50: < 100 nM

Could I get EC50 for every one of these entries?
1. Cc1ncsc1CC(=O)N[C@H](C(=O)Nc1ccc(-c2c(C)n[nH]c2C)cc1)C1CCCCC1
2. Cc1ncn(C)c1-c1ccc(NC(=O)[C@@H](NC(=O)OC(C)(C)C)C2CCCC2)cc1
3. CC(C)c1ncn(C)c1-c1ccc(NC(=O)[C@@H](NC(=O)c2ccnn2C(C)C)C(C2CC2)C2CC2)cc1

1: > 1000 nM; 2: > 1000 nM; 3: 100 to 1000 nM

Notebook: pull reported EC50 for human IL-17AA (Homo sapiens), entry "Cc1n[nH]c(C)c1-c1ccc(NC(=O)[C@@H](NC(=O)c2cnn3ncccc23)C2CCCCC2)cc1"
100 to 1000 nM

====

Molecular target: human IL-17AA (Homo sapiens)
Assay: IL-8 release assay in human epithelial keratinocytes adult (HEKa)
Details: HEKa cells, 3 ng/mL HEK-human IL-17AA + 10 ng/mL human TNFalpha; read-out: Rel EC50 IL-8 release assay
Assay Readout: EC50

Study these solved cases before continuing.
Compound: Cc1n[nH]c(C)c1-c1ccc(NC(=O)[C@@H](NC(=O)c2ccnn2C)C(C2CC2)C2CC2)cc1 [Example 117]
Target: human IL-17AA (Homo sapiens)
EC50: < 100 nM
//
Compound: Cc1n[nH]c(C)c1-c1ccc(NC(=O)[C@@H](NC(=O)N2CCCC2CO)C2CCCCC2)cc1 (single isomer, unassigned) [Example 474]
Target: human IL-17AA (Homo sapiens)
EC50: > 1000 nM
//
Compound: Cc1n[nH]c(C)c1-c1ccc(NC(=O)[C@@H](NC(=O)c2ccnn2C(CF)CF)C(C2CC2)C2CC2)cc1 [Example 217]
Target: human IL-17AA (Homo sapiens)
EC50: < 100 nM
//
Compound: Cc1n[nH]c(C)c1-c1ccc(NC(=O)[C@@H](NC(=O)c2ccnn2C(C)CCO)C(C2CC2)C2CC2)cc1 (single isomer, unassigned) [Example 225]
Target: human IL-17AA (Homo sapiens)
EC50: < 100 nM
//
Compound: Cc1n[nH]c(C)c1-c1ccc(NC(=O)C(NC(=O)c2ccnn2[C@@H](C)CO)C2CCCCCCC2)cc1 (single isomer, unassigned) [Example 150]
Target: human IL-17AA (Homo sapiens)
EC50: > 1000 nM

Please turn your attention to the following entry.
Quick check: EC50 on human IL-17AA (Homo sapiens), item Cc1n[nH]c(C)c1-c1ccc(NC(=O)[C@@H](NC(=O)c2ccnn2C)C(C)CC(C)(C)C)cc1 (mixture of isomers) [Example 196] ?
< 100 nM
